molecular target: Fes (UniProt P07332); test: phosphorylation enrichment, bacterial display (enrichment ratio); higher = better substrate or ligand; peptides without Tyr show the background;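 also: 11-residue human phosphosite peptides and single-mutation variants displayed on the E. coli surface, counted by deep sequencing, each peptide's frequency after selection divided by its frequency in the unselected input library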;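 also: frequency after pTyr selection over input frequency; kinase dosed for 20-30% of maximal phosphorylation in three min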
Sequence (P07332 whole entry, looked up): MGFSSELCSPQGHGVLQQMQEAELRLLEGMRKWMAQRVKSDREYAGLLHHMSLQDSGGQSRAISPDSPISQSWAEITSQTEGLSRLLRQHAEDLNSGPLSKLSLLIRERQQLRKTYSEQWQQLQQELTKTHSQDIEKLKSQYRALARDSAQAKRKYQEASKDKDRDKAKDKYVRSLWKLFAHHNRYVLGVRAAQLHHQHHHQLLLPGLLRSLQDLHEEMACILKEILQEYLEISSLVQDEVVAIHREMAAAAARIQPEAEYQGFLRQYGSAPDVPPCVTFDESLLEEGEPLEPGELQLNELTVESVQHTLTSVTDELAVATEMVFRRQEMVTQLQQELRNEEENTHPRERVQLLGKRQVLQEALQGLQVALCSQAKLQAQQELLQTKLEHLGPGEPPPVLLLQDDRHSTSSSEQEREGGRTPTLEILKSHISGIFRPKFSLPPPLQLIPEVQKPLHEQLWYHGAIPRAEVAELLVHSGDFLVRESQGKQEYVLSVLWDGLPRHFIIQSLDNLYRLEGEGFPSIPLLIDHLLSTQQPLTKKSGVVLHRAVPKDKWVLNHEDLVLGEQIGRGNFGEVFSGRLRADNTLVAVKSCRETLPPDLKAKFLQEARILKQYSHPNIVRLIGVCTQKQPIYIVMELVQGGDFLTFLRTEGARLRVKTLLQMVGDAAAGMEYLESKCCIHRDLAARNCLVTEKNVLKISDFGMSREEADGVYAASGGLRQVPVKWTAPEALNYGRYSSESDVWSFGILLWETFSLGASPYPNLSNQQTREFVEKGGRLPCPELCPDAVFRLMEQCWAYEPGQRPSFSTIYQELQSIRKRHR
QUANTITY_KIND: phosphorylation enrichment

For QTSTDYDIRFY [CSNK2A1_Y131_L128S] the sequence record lists phosphorylation enrichment as 1.86

Given item YKEDPYLVVNP [MCM6_Y810_E806K] , the value recorded as its phosphorylation enrichment is 1.11

// sample ENQEIYRKAFD [KPNA1_Y493_Q494R] , its phosphorylation enrichment was 1.13

# sequence FRNSLYAPDYS [FAM92A_Y226] ; its phosphorylation enrichment = 0.725

Recorded result, DLQDEYDFKCK [STAT1_Y170] , phosphorylation enrichment: 1.31

Memo: LSSEMCVKSYT [F5_Y2149_Y2149C] , reported phosphorylation enrichment: 1.76

For MSRDVYSIDFF [NTRK2_Y702_T704I_YF] the sequence record lists phosphorylation enrichment as 1.05

The recorded phosphorylation enrichment for RGEAVYSRDCV [XPC_Y676] is 1.2
